- test-target: recombinant human MASP2 (amino acids 297-686, C-terminal His Tag) (human, UniProt O00187 297-686)
- Sequence (O00187 other isoform, or with tags, fused parts or gaps limits assumed): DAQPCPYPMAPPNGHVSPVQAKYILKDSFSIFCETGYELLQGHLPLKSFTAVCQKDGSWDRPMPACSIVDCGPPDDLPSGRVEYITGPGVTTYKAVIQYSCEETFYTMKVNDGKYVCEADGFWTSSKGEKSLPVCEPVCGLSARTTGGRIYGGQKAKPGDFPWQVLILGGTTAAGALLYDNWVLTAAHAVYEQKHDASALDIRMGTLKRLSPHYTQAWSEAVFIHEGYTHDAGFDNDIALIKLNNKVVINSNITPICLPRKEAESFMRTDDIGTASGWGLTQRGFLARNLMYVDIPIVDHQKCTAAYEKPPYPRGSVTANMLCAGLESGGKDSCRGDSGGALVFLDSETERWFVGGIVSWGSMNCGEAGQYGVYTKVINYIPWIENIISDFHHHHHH
- procedure-text: cell-based or functional assay
Bridges are numbered along the chain shown (N, C = ends). [ ]: non-standard residue; d: D form. Oic = O=C(O)[C@@H]1C[C@@H]2CCCC[C@@H]2N1; tBuAla = CC(C)(C)C[C@H](N)C(=O)O; Pen = CC(C)(S)[C@H](N)C(=O)O; PEG2 = NCCOCCOCCC(=O)O; Ahx = NCCCCCC(=O)O; Sar = CNCC(=O)O
Everything with human MASP2 IC50 lower than 70 nM is NO; everything else, including exactly 70 nM, is YES.

INSERT INTO assay_data (binder, category) VALUES
  ('cyclo([Ahx][Sar]ICSRS[tBuAla]PPI[Pen]I) (disulfide 4-12; also: TFA salt) [Example 64: (Ahx)**-((N-Me)G)-IC+SRS-((tBu)A)-PPI-(Pen)+-I**]', 'NO'),
  ('cyclo([Ahx]ICSRS[tBuAla]PPI[Pen]I) (disulfide 3-11; also: TFA salt) [Example 52: (Ahx)**-IC+SRS-((tBu)A)-PPI-(Pen)+-I**]', 'NO'),
  ('cyclo([PEG2]GICSRSLPPICIPD) (disulfide 4-12; also: TFA salt) [Example 24: (PEG1(10 atoms))**-GIC+SRSLPPIC+IPD**]', 'YES'),
  ('[Ahx]AICSRSLP[Oic]I[Pen]IPD-NH2 (disulfide 4-12; lactam N-15; also: TFA salt) [Example 43: (Ahx)**AIC+SRSLP-(Oic)-I-(Pen)+-IPD++-NH2]', 'YES');
